# target_system: rat MAO-A (Rattus norvegicus)
# Construct: using a crude rat brain mitochondrial suspension as a source of enzyme; from tissue; host or cells: rat brain (crude mitochondrial suspension)
# Sequence (P21396 whole entry): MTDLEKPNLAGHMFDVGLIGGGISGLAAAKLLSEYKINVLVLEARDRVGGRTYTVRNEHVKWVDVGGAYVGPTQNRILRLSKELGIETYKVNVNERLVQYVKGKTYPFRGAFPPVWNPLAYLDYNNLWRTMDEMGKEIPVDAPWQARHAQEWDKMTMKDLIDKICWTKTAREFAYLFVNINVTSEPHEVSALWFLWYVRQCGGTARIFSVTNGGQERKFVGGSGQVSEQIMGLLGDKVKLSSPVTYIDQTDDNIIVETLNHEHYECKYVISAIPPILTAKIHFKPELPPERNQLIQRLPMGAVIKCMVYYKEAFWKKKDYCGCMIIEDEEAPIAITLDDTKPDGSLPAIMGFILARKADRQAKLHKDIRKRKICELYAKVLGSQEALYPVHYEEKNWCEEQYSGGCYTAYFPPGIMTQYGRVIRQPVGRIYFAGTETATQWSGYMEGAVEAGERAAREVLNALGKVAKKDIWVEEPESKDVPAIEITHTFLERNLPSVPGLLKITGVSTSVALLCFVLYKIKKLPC
# measurement_description: MAO-A inhibition, crude rat brain mitochondrial suspension, serotonin substrate, HPLC-ED
# Format: biochemical
# condition_description: 100 µM compound; serotonin 100 µM as substrate
property_name: inhibition at 100 µM (%)

inhibition at 100 µM for O=C(CN1CCN(CCCc2c[nH]c3ccc(F)cc23)CC1)N1CCOc2cc(F)ccc21 [Compound 7h] ?
0

a: O=C(CN1CCN(CCCc2c[nH]c3ccccc23)CC1)N1CCOc2ccc(Cl)cc21 [Compound 7d]
b: O=C(CN1CCN(CCCc2c[nH]c3ccc(F)cc23)CC1)N1CCOc2ccc(F)cc21 [Compound 7i]
Which one would you say has the larger inhibition at 100 µM value: a , or b ? Answer by stating the label of the chosen item.
a
(a: 18%, b: 0%)
